Data provenance: patent US20240190849A1

- measured on: FGFR3 (Homo sapiens, UniProt P22607)
- Construct: made in house; host or cells: E. coli derived from BL21, infected with T7 phage
- Sequence (P22607 23-806): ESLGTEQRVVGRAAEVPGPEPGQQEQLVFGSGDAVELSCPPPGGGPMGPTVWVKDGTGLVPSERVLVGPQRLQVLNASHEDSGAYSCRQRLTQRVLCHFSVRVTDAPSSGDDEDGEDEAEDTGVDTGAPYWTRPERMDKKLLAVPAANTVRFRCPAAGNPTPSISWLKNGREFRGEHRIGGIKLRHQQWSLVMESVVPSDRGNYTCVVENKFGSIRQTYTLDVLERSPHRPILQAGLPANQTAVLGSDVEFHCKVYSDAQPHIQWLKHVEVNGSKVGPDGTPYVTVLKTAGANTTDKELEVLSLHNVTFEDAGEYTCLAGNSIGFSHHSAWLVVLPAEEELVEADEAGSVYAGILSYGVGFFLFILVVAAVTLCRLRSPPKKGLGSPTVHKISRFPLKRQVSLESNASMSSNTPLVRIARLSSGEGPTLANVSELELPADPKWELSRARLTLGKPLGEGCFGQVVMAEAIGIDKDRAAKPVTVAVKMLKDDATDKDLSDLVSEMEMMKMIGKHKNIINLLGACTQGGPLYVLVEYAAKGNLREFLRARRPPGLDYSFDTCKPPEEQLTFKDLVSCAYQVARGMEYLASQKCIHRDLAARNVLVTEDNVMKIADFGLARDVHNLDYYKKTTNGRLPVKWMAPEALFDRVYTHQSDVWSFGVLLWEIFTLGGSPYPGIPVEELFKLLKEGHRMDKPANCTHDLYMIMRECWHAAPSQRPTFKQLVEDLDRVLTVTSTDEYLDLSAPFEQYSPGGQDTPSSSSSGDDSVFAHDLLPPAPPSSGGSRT
- experiment: Kinase binding assay (kinase-tagged T7 phage, affinity beads, qPCR readout), FGFR3
- condition label: FGFR binding data
Reported values of Kd for individual entries

Recorded Kd, per entry:
given smiles | measured on | Kd
C=CC(=O)Nc1ccc2c(c1)c(C)cn2-c1nc(Nc2ccc(CN3CCN(C)CC3)c(F)c2)ncc1Cl | FGFR3 (Homo sapiens, UniProt P22607) | 0.1 to 100 nM
C=CC(=O)Nc1ccc2c(c1)c(C)cn2-c1nc(Nc2cn(C[C@@H](C)O)nc2C)ncc1F | FGFR3 (Homo sapiens, UniProt P22607) | 0.1 to 100 nM

Lookup: Recorded Kd for C=CC(=O)Nc1ccc2c(c1)c(C)cn2-c1nc(Nc2cc(C)nn2C)ncc1C with FGFR3 (Homo sapiens, UniProt P22607), please?
Found: 0.1 to 100 nM
